Each entry below lists one item and its recorded melting point value.

Here's what some known entries look like.
COc1ccc2c(CCC(=O)O)nnc(-c3nccs3)c2c1: 228 to 229 °C
O=S(=O)(c1ccccc1)n1c2cc(O)c(O)cc2c2ccc(O)c(O)c21: 176 to 178 °C
CC(CC(=O)O)(C(=O)O)c1ccc(F)cc1 (stereo not given): 149 to 152 °C
CCOC(=O)Cn1cnc(-c2cc(OC)c(OC)c(OC)c2)c1-c1ccc(C(F)(F)F)cc1: 129 to 134 °C
CCCCCCCCCCCCCCCCCCOCC(O)Cn1ccc(N)nc1=O (stereo not given): 153 to 154 °C
CNc1cnc(N2CCOCC2)cc1-c1ccccc1C: 73.5 to 76 °C

May I ask what melting point has been recorded for COc1ccc(CCc2oc3ccc(C#N)cc3c2C(C)=O)cc1 ?
130 to 131 °C

I have this compound here, CS(=O)(=O)NC(=O)C1(CCCCCCCCCCCCC2(C(=O)NCCO)CC2)CC1 , and I need its recorded melting point.
104 to 105 °C

Field request: melting point | item: CCc1coc2c(-c3ccc(S(C)(=O)=O)cc3)c(-c3ccc(F)cc3)nn12
205 to 208 °C

Could you share which melting point value was measured for Cc1cc(Cl)cc(C(=O)NC(C)C)c1NC(=O)c1cc(Br)nn1N1C=CC=C(Cl)C1 ?
159 to 161 °C

====

# reported melting point; entries follow

COC[C@H]1CCCN1C(=O)c1cc(-c2ccccc2)c(=O)n2c1-c1sccc1C2: 150 to 152 °C
O=c1ccc(-c2ccc(OC3CCN(C4CCCC4)CC3)cc2)n[nH]1: 211 to 213 °C
Cc1ccc2c(c1)c(N1CCNCC1)c(C#N)c(=O)n2Cc1ccc(F)cc1: 121 °C

Consider the molecule O=C1Cc2ccccc2N1c1c(Cl)cc(OCc2ccc3ccccc3n2)cc1Cl and give its measured melting point.
158 °C

// lookup melting point for CC(=O)N1OC(C)C(=S)NC1c1ccccc1C (stereo not given)
167 to 170 °C

Form field: reported melting point of Cc1ccc(S(=O)(=O)OCCCn2c3c(c4ccccc4c2=O)C(=O)c2ccccc2-3)cc1
177 to 179 °C

Data request, read-out melting point, for O=S(=O)(c1ccccc1)c1cnc2c(N3CCNCC3)cccc2c1
164 °C

Recorded melting point of NC(=O)n1ccc(-c2ccc(Oc3ccc(N)cc3)cc2)n1 , please.
158 to 160 °C

Any idea what melting point was measured for O=C(Nc1ccc(N2CCN(C(=O)Nc3ccc(OCCO)cc3C(F)(F)F)CC2)cc1)Nc1nc(C2CC2)cs1 ?
120 to 123 °C

# input molecule: COC1=C(OC)C(=O)C(CCC(=O)N2CCC[C@H]2C(=O)O)=C(C)C1=O ; wanted: its melting point
131 °C

# get_value(readout='melting point', item= CCOC(=O)C(Cc1ccc(OCCN2CCC(C)(C)c3cc(C(=NOC)c4ccccc4)ccc32)cc1)OCC(F)(F)F (stereo not given) )
58 to 60 °C

Give the measured melting point of O=c1[nH]c2ccccc2c(=O)n1S(=O)(=O)c1ccccc1 .
211 to 213 °C

====

measure: melting point

Worked set:
CC(C)(C)OC(=O)NCc1cccc(C2CCN(C(=O)c3ccc(C#Cc4ccccc4F)o3)CC2)c1: 111 to 113 °C
CCCCCCCOc1ccc(CNc2ccc(C(=O)OCC)cc2)cc1: 111 to 113 °C

Return reported melting point; argument: N#Cc1ccc(CC23CCCN2C(=O)N(c2cc(Cl)cc(Cl)c2N)C3=O)cc1 (stereo not given)
122 °C

Returns the measured melting point for the input compound. Input: CC(=O)Oc1ccc(CC(CCC(=O)O)N2C(=O)c3ccccc3C2=O)cc1 (stereo not given)
142 to 144 °C

For the compound shown here, COc1ccc(-c2ccc(OC)c(C34CC5CC(CC(C5)C3)C4)c2)cc1C12CC3CC(CC(C3)C1)C2 , give the reported melting point.
288 to 289 °C

So what's the measured melting point for this one? COc1ccc(C(O)CN2CCN(C(c3ccccc3)c3ccccc3)CC2)c(OC)c1OC (stereo not given)
128 °C

For the compound shown here, CCCCCC(=O)c1ccc(OCc2ccc3ccccc3n2)cc1 , give the reported melting point.
78 to 80 °C

Fill in: melting point of Brc1ccc(-c2nc3n(c2-c2ccc(Br)cc2)CCS3)cc1 is ___
208 to 210 °C

Name the reported melting point value associated with the compound COc1ccc(N2CCCC2=O)cc1OC1CCCC1
130 to 131 °C
